B1: HDV Ribozyme (parent)
chain: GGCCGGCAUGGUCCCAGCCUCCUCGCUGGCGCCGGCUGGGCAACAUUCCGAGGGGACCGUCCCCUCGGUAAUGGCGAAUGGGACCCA

Variants of: B1
Assay: self-cleavage, relative activity (ratio to wild type); higher = more cleavage; co-transcriptional
Could you please report measured self-cleavage for the items listed next?
Answers are plain numbers.

The examples below pair each entry with its known result.
> print(dat)
   mutation.id  measured.number
1    C44U C57A            0.672
2    C24U G50A            0.726
3    C33U G68C            0.789

Give one value of self-cleavage per listed variant.
1. G6U C85A
2. C14U C19A

## Output
1. 0.394
2. 0.0545
